Assay: changes in parasitized red cell lysis, either direction – P. falciparum Indochina, OD700, 3 h, PSAC antagonist project, primary screen (AID 1156)
Details: P. falciparum-infected erythrocytes, osmotic lysis, higher = more signal, called active from +8 up or from −8 down
The source made the active and inactive calls.
z-score listing for selected compounds.

| COMPOUND | z-score |
| --- | --- |
| O=C1O[C@H](c2ccccc2)[C@H](c2ccccc2)N2[C@H]1[C@@H](C(=O)N1CCN(c3ncccn3)CC1)[C@]1(C(=O)Nc3ccc(C#CCCO)cc31)[C@H]2c1ccc(OCCO)cc1 | 0.588 (inactive) |
| CCCCC=C[C@@H](NC(=O)CCc1ccccc1)c1ccccc1 | -0.985 (inactive) |
| COc1ccccc1CN1C(=O)c2ccccc2[C@](Cc2ccccc2I)(C(=O)NCCN2CCOCC2)[C@@H]1c1ccc(CO)cc1 | -0.113 (inactive) |
| COc1cc2c(cc1OC)CN(C(=O)[C@@H]1[C@H]3C(=O)O[C@H](c4ccccc4)[C@H](c4ccccc4)N3[C@H](c3ccc(OCCO)cc3)[C@@]13C(=O)Nc1ccc(C#CCCO)cc13)CC2 | 0.464 (inactive) |
| O=C1CSC(c2cccc([N+](=O)[O-])c2)N1c1ccccc1 (centres undefined) | 0.708 (inactive) |
| [N-]=[N+]=Nc1ccccc1[C@H]1OC(c2ccc(OCCCO)cc2)=N[C@@]1(Cc1ccccc1)C(=O)NCc1ccccc1 | 1.22 (inactive) |
| C=CCOc1ccc([C@@H]2CC=C(C(=O)OCC)[C@H](c3cccc(Br)c3)N2S(=O)(=O)c2ccc(C)cc2)cc1 | -0.864 (inactive) |
| COCC(=C=CC[C@@H](O)c1ccccc1OCCO)C[C@@H](O)c1ccccn1 | 0.502 (inactive) |
| CC1CC/C=C\[C@H]2OC34C=CCN(c5ccc(Cl)cc5)C(=O)[C@H]3N(C(CO)C(C)C)C(=O)[C@]4(C)C2C(=O)O1 (some centres undefined) | 0.647 (inactive) |
| C[C@@H]1ON(c2ccccc2)[C@H](c2ccccc2)[C@H]1C(=O)N1C(=O)OC[C@H]1Cc1ccccc1 | -0.13 (inactive) |
| CN(C)C(=O)[C@@]1(CCC(=O)OC(C)(C)C)COC(c2ccc(OCCCO)cc2)=N1 | -0.674 (inactive) |
| CN(C)CCCCNC(=O)[C@H]1C[C@H]2C(=O)N[C@@H](CCCC[N+](C)(C)C)C(=O)N2[C@H]1c1cccc(OCCO)c1 | 0.675 (inactive) |
| COc1ccc(CCNC(=O)[C@@H]2c3ccccc3C(=O)N(Cc3ccccc3)[C@H]2c2ccc(CO)cc2)cc1 | 0.504 (inactive) |
| COc1ccc(C(=O)Nc2ccc(CN3C(=O)[C@@]4(O[C@@H](CC(=O)N5Cc6ccccc6C[C@H]5CO)[C@H]([Si](C)(C)c5ccc(OC)cc5)[C@H]4C)c4ccccc43)cc2)cc1 | 0.655 (inactive) |
| CC(C)C[C@@H]1NC(=O)[C@@]23C(=O)N[C@@H](Cc4ccccc4)C2[C@H](C)[C@@]2(C)O[C@H]2C3/C=C/C/C=C\CNC(=O)[C@@H]2CCCN2C1=O (some centres undefined) | -0.551 (inactive) |
| COC(=O)[C@@]1(Cc2ccccc2N=[N+]=[N-])N=C(c2ccc(OCCCO)cc2)O[C@H]1c1ccccc1 | 0.0321 (inactive) |
| CCN(CC)c1ccc(N2CC=CC34O[C@@H]5/C=C\CCCOC(=O)C5[C@H]3C(=O)N(CCCCCCO)[C@@H]4C2=O)cc1 (some centres undefined) | 0.625 (inactive) |
| O=C1O[C@H](c2ccccc2)[C@H](c2ccccc2)N2[C@H]1[C@@H](C(=O)NC[C@H](O)c1ccccc1)[C@]1(C(=O)Nc3ccccc31)[C@H]2c1ccccc1OCCO | -2.5 (inactive) |
| O=c1c2ccc(Br)cc2nc(-c2ccccc2)n1Cc1cccc(O)c1 | 0.386 (inactive) |
| COC(=O)C(CC#Cc1ccc2c(c1)[C@]1(C(=O)N2)[C@H](c2ccc(O)cc2)N2[C@H](c3ccccc3)[C@H](c3ccccc3)OC(=O)[C@H]2[C@@H]1C(=O)O)C(=O)OC | -0.258 (inactive) |
| Cc1ccc(N2C(=O)c3ccccc3[C@](C)(C(=O)NC(C)C)[C@@H]2c2ccc(CO)cc2)nc1 | 0.18 (inactive) |
| CCCCC(CC)C(O)C1C=CC2C(=O)NC(=O)C2N1Nc1ccccn1 (centres undefined) | 0.186 (inactive) |
| COCC(=C=CC[C@@H](O)c1ccccc1OCCO)C[C@@H](O)COCc1ccccc1 | 0.66 (inactive) |
| CCN(CC)c1ccc(N2CC=CC34O[C@@H]5/C=C\CCCOC(=O)C5[C@H]3C(=O)N(CCCCCO)[C@@H]4C2=O)cc1 (some centres undefined) | -0.656 (inactive) |
| C=CCNC(=O)[C@@H]1[C@H]2C(=O)O[C@H](c3ccccc3)[C@H](c3ccccc3)N2[C@H](c2ccc(O)cc2)[C@@]12C(=O)Nc1ccc(C#CCCO)cc12 | -0.534 (inactive) |
| CN(C)C(=O)[C@@]1(CCC(=O)OC(C)(C)C)N=C(c2ccc(OCCCO)cc2)O[C@H]1c1ccccc1N=[N+]=[N-] | 1.78 (inactive) |
| O=C1c2ccccc2[C@](Cc2ccccc2I)(C(=O)NC2CC2)[C@H](c2ccc(CO)cc2)N1Cc1ccccc1Cl | 2.82 (inactive) |
| NC(=O)[C@@H]1[C@H]2C(=O)O[C@H](c3ccccc3)[C@H](c3ccccc3)N2[C@H](c2ccccc2OCCO)[C@@]12C(=O)Nc1ccc(C#CCCO)cc12 | -2.23 (inactive) |
| COCCCNC(=O)[C@]1(Cc2ccccc2CN=[N+]=[N-])N=C(c2ccc(OCCCO)cc2)O[C@@H]1c1ccccc1CN=[N+]=[N-] | 1.72 (inactive) |
